Sourced from ChEMBL document CHEMBL5442168

- assayProcedure: Human liver microsomal stability of compound in microsomal protein, PBS buffer pH 7.4, NADPH, glucose-6-phosphate and glucose-6-phosphate dehydrogenase media. Aliquotes were taken at 5 time points and after stopping the reaction, supernatants were analyzed using HPLC coupled with a tandem mass spectrometer. The elimination constant, half-life, and intrinsic clearance are determined as results using linear regression analysis. The assay has been performed by Enamine biological services, Bienta Ltd.The protocol is publicly available: dx.doi.org/10.17504/protocols.io.5qpvokdb9l4o/v1
- Format: ADME, microsomes, Microsome
- statedConditions: liver microsomes
testReadout: half-life (min)

Consider the worked cases shown below.
[in] # return recorded half-life for input "CC(C)(C)[C@H](Nc1ncnc2[nH]c(-c3cnn(CC(N)=O)c3)cc12)c1ccc2c(c1)OCCO2"
[out] 10.9

[in] Look up half-life of "CC(C)[C@H](Nc1ncnc2[nH]c(-c3cnn(C)c3)cc12)c1ccc2c(c1)S(=O)(=O)CCC2" and report it.
[out] 9.9

[1] CNC(=O)Cn1cc(-c2cc3c(N[C@@H](c4ccc5c(c4)OCCO5)C(C)C)ncnc3[nH]2)cn1
[2] CC(C)[C@@H](Nc1ncnc2[nH]c(-c3cnn(CC(N)=O)c3)cc12)c1ccc2c(c1)NC(=O)CO2
[in] Compare 1 and 2 by numeric half-life and name the larger one. // respond with label for picked entry
[out] 2
(2: 99.2 min, 1: 14 min)

---

- assayProcedure: Human liver microsomal stability of compound in microsomal protein, PBS buffer pH 7.4, NADPH, glucose-6-phosphate and glucose-6-phosphate dehydrogenase media. Aliquotes were taken at 5 time points and after stopping the reaction, supernatants were analyzed using HPLC coupled with a tandem mass spectrometer. The elimination constant, half-life, and intrinsic clearance are determined as results using linear regression analysis. The assay has been performed by Enamine biological services, Bienta Ltd.The protocol is publicly available: dx.doi.org/10.17504/protocols.io.5qpvokdb9l4o/v1
- Type: ADME, microsomes, Microsome
- statedConditions: liver microsomes
testReadout: half-life (min)

[in] Item "CC(C)[C@@H](Nc1ncnc2[nH]c(-c3cnn(CCC(N)=O)c3)cc12)c1ccc2c(c1)OCCO2" : provide half-life
[out] 16.9

[in] Identify measured half-life corresponding to "CC(C)[C@H](Nc1ncnc2[nH]ccc12)c1ccc2c(c1)NC(=O)CO2"
[out] 160

[in] Return the recorded half-life value; entry: O=C(Nc1ccccc1)Nc1ccc(C(=O)NC2c3cccc(O)c3CC2C(=O)O)cc1 (stereo not drawn)
[out] 187

[in] State its half-life: "O=C(Nc1cccc2c(C(=O)N[C@@H]3c4ccccc4C[C@@H]3C(=O)O)c[nH]c12)NC1CC1"
[out] 280

[in] // Input: "CC(C)[C@H](Nc1ncnc2[nH]c(-c3cnn(CC(N)=O)c3)cc12)c1ccc2c(c1)S(=O)(=O)CCC2" . Output its half-life only.
[out] 7

[in] Input "CC(C)(C)[C@H](Nc1ncnc2[nH]c(-c3cnn(CC(N)=O)c3)cc12)c1ccc2c(n1)OCCO2" , output reported half-life.
[out] 60.8

[P] CC(C)(C)[C@@H](Nc1ncnc2[nH]c(-c3cnn(CC(N)=O)c3)cc12)c1ccc2c(n1)OCCO2
[Q] CC(C)[C@@H](Nc1ncnc2[nH]c(-c3ccc4nnn(C)c4c3)cc12)c1ccc2c(c1)S(=O)(=O)CCC2
[in] Between item P and item Q , which reported half-life is smaller? Reply briefly: the label of your chosen item.
[out] Q

---

- assayProcedure: Mouse liver microsomal stability of compound in microsomal protein, PBS buffer pH 7.4, NADPH, glucose-6-phosphate and glucose-6-phosphate dehydrogenase media. Aliquotes were taken at 5 time points and after stopping the reaction, supernatants were analyzed using HPLC coupled with a tandem mass spectrometer. The elimination constant, half-life, and intrinsic clearance are determined as results using linear regression analysis. The assay has been performed by Enamine biological services, Bienta Ltd.The protocol is publicly available: dx.doi.org/10.17504/protocols.io.5qpvokdb9l4o/v1
- Type: ADME, microsomes, Microsome
- statedConditions: microsomes
testReadout: Remaining (%)

Reference set (3 entries):
[in] For the compound "CC(C)(C)[C@H](Nc1ncnc2[nH]c(-c3cnn(CC(N)=O)c3)cc12)c1ccc2c(n1)OCCO2" , give its reported Remaining.
[out] 88

[in] Identify measured Remaining associated with "Cn1ncc(-c2cc3c(N[C@@H](c4ccc5c(c4)OCCO5)C(C)(C)C)ncnc3[nH]2)c1C#N"
[out] 4

[in] Find the measured Remaining of "CC(C)[C@@H](Nc1ncnc(N)c1Cl)c1ccc2c(c1)S(=O)(=O)CCC2" and report it.
[out] 4

[a] Cc1nn(C)cc1-c1cc2c(N[C@H](c3ccc4c(c3)S(=O)(=O)CCC4)C(C)C)ncnc2[nH]1
[b] CC(C)[C@H](CO)Nc1ncnc2[nH]ccc12
[in] In terms of reported Remaining, does a or b have the smaller number? Answer with the label corresponding to your selection.
[out] a
(a: 4%, b: 90%)

---

- assayProcedure: Mouse liver microsomal stability of compound in microsomal protein, PBS buffer pH 7.4, NADPH, glucose-6-phosphate and glucose-6-phosphate dehydrogenase media. Aliquotes were taken at 5 time points and after stopping the reaction, supernatants were analyzed using HPLC coupled with a tandem mass spectrometer. The elimination constant, half-life, and intrinsic clearance are determined as results using linear regression analysis. The assay has been performed by Enamine biological services, Bienta Ltd.The protocol is publicly available: dx.doi.org/10.17504/protocols.io.5qpvokdb9l4o/v1
- Assay type: ADME, microsomes, Microsome
- statedConditions: microsomes
testReadout: T1/2 (min)

[in] Please report T1/2 for the following molecule: "CCNC(=O)c1cc2c(N[C@@H](c3ccc4c(c3)OCCO4)C(C)C)ncnc2[nH]1"
[out] 23.2

[in] Please supply the value of reported T1/2 for the item "CC(C)[C@@H](Nc1ncnc2[nH]c(-c3cnn(C)c3C#N)cc12)c1ccc2c(n1)NC(=O)CO2"
[out] 8.8

[in] Entry "CC(C)[C@@H](Nc1ncnc2[nH]c(-c3cnn(C)c3C#N)cc12)c1ccc2c(c1)OCCO2" needs its T1/2 filled in; supply it.
[out] 13

[1] CC(C)[C@@H](Nc1ncnc2[nH]ccc12)c1ccc2c(c1)NC(=O)CO2
[2] CC(C)[C@@H](Nc1ncnc2[nH]c(-c3cnn(C)c3C#N)cc12)c1ccc2c(c1)S(=O)(=O)CCC2
[3] CC(C)[C@@H](Nc1ncnc2[nH]c(-c3cnn(C)c3C#N)cc12)c1ccc2c(c1)NC(=O)CO2
[4] CNCc1cc(-c2cc3c(N[C@@H](c4ccc5c(c4)S(=O)(=O)CCC5)C(C)C)ncnc3[nH]2)co1
[in] Kindly order the items shown according to T1/2, from the highest value down. Order the labels as requested and give them as your answer.
[out] 4, 1, 3, 2

[I] CC(C)[C@@H](Nc1ncnc2[nH]c(-c3cnn(CC(N)=O)c3)cc12)c1ccc2c(c1)S(=O)(=O)CCC2
[II] CC(C)(C)[C@@H](Nc1ncnc2[nH]c(-c3cnn(CC(N)=O)c3)cc12)c1ccc2c(n1)OCCO2
[III] CC(C)[C@@H](Nc1ncnc2[nH]c(-c3cnn(CC(=O)N(C)C)c3)cc12)c1ccc2c(c1)OCCO2
[in] Arrange these molecules by their T1/2, starting with the largest number. API: response body holds the labels in the requested order.
[out] II, III, I
(II: 56.2 min, III: 36.8 min, I: 17.4 min)

[1] CNC(=O)c1c[nH]c2ncnc(N[C@@H](c3ccc4c(c3)S(=O)(=O)CCC4)C(C)C)c12
[2] CC(C)(C)[C@@H](Nc1ncnc2[nH]c(-c3cnn(CC(N)=O)c3)cc12)c1ccc2c(c1)OCCO2
[in] Min T1/2? 1 | 2 Reply briefly: the label of your chosen item.
[out] 1
(1: 14.7 min, 2: 43.1 min)

---

- assayProcedure: Mouse liver microsomal stability of compound in microsomal protein, PBS buffer pH 7.4, NADPH, glucose-6-phosphate and glucose-6-phosphate dehydrogenase media. Aliquotes were taken at 5 time points and after stopping the reaction, supernatants were analyzed using HPLC coupled with a tandem mass spectrometer. The elimination constant, half-life, and intrinsic clearance are determined as results using linear regression analysis. The assay has been performed by Enamine biological services, Bienta Ltd.The protocol is publicly available: dx.doi.org/10.17504/protocols.io.5qpvokdb9l4o/v1
- Format: ADME, microsomes, Microsome
- statedConditions: liver microsomes
testReadout: half-life (min)

[A] CC(C)[C@H](Nc1ncnc2[nH]c(-c3cnn(CC(=O)N(C)C)c3)cc12)c1ccc2c(c1)OCCO2
[B] CC(C)[C@H](Nc1ncnc2[nH]c(-c3cnn(CC(=O)N(C)C)c3)cc12)c1ccc2c(c1)S(=O)(=O)CCC2
[C] CC(C)[C@@H](Nc1ncnc2[nH]c(-c3cnn(C)c3C#N)cc12)c1ccc2c(c1)NC(=O)CO2
[in] Order the entries above from lowest to highest half-life. Returns: the labels arranged in the requested order.
[out] C, B, A
(C: 9.4 min, B: 13.5 min, A: 48.1 min)

---

- assayProcedure: Mouse liver microsomal stability of compound in microsomal protein, PBS buffer pH 7.4, NADPH, glucose-6-phosphate and glucose-6-phosphate dehydrogenase media. Aliquotes were taken at 5 time points and after stopping the reaction, supernatants were analyzed using HPLC coupled with a tandem mass spectrometer. The elimination constant, half-life, and intrinsic clearance are determined as results using linear regression analysis. The assay has been performed by Enamine biological services, Bienta Ltd.The protocol is publicly available: dx.doi.org/10.17504/protocols.io.5qpvokdb9l4o/v1
- Type: ADME, microsomes, Microsome
- statedConditions: liver microsomes
testReadout: microsomal CLint (µL/min/mg)

[in] // fetch microsomal CLint given entry "CNC(=O)c1c[nH]c2ncnc(N[C@@H](c3ccc4c(c3)S(=O)(=O)CCC4)C(C)C)c12"
[out] 192

[in] Provide microsomal CLint value for the following molecule: "CNCc1cc(-c2cc3c(N[C@H](c4ccc5c(c4)S(=O)(=O)CCC5)C(C)C)ncnc3[nH]2)co1"
[out] 40

[in] Identify measured microsomal CLint associated with "COc1ccc([C@H](Cc2nnn[nH]2)NC(=O)c2ncnc3[nH]ccc23)cc1"
[out] 7

[in] Give me measured microsomal CLint, please, for this molecule: "CNC(=O)c1c[nH]c2ncnc(N[C@@H](c3ccc4c(c3)OCCO4)C(C)C)c12"
[out] 88

[in] Return microsomal CLint for the following molecule: "Cn1ncc(-c2cc3c(N[C@@H](c4ccc5c(c4)OCCO5)C(C)(C)C)ncnc3[nH]2)c1C#N"
[out] 199

[in] Complete the entry with microsomal CLint for "CC(C)(C)[C@@H](Nc1ncnc2[nH]c(-c3cnn(CC(N)=O)c3)cc12)c1ccc2c(c1)OCCO2"
[out] 47

[1] CC(C)[C@H](Nc1ncnc2[nH]c(C(=O)N[C@H]3CCN(C)C3)cc12)c1ccc2c(c1)S(=O)(=O)CCC2
[2] CC(C)[C@H](Nc1ncnc2[nH]c(-c3cnn(CC(=O)N(C)C)c3)cc12)c1ccc2c(c1)OCCO2
[3] CCNC(=O)c1cc2c(N[C@H](c3ccc4c(c3)S(=O)(=O)CCC4)C(C)C)ncnc2[nH]1
[in] Put the molecules in ascending order of microsomal CLint. // rank by listing labels in the order requested
[out] 1, 2, 3
(1: 1 µL/min/mg, 2: 35 µL/min/mg, 3: 64 µL/min/mg)
